- target_entity: T1, human CD48 (on primary human peripheral blood mononuclear cells) (human, UniProt P09326 27-220)
- T1 sequence: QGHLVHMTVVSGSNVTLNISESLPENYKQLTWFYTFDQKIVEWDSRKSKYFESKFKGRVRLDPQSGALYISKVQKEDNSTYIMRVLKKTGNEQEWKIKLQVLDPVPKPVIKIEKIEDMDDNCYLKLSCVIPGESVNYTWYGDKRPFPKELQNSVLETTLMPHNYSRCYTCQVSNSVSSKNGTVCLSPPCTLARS
- assay_explanation: cell-based or functional assay
Parameter Inhibition of IFN-gamma Release IC50; Donor 5: see the listing below.
Number only, in Molar; omit the unit.

H2M1710N (antibody, mouse IgG2, V domains shown, Human variable domains, mouse IgG2 Fc (H2M)) VH: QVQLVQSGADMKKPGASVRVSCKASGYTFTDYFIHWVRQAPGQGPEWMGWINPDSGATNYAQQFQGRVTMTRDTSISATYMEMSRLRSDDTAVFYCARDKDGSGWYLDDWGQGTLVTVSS VL: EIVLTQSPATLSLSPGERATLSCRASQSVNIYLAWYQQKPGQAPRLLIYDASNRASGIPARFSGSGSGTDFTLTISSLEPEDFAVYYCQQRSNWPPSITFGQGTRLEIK = 2.7e-10

Exercise: Request the reported Inhibition of IFN-gamma Release IC50; Donor 5 associated with H2M1713N (antibody, mouse IgG2, V domains shown, Human variable domains, mouse IgG2 Fc (H2M)) VH: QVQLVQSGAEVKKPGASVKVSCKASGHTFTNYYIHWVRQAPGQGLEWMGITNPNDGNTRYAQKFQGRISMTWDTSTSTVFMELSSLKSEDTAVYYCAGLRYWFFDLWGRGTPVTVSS VL: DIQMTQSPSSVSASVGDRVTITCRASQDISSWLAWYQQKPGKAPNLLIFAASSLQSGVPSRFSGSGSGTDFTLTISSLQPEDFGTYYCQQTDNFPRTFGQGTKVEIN
Solution: 1.1e-11

The measured values listed here are drawn from patent US20130230533A1.
